Please provide measured pEC50 for the entries that follow.
- Tested target: AhR (Rattus norvegicus, UniProt P41738)
- Sequence (P41738 10-853): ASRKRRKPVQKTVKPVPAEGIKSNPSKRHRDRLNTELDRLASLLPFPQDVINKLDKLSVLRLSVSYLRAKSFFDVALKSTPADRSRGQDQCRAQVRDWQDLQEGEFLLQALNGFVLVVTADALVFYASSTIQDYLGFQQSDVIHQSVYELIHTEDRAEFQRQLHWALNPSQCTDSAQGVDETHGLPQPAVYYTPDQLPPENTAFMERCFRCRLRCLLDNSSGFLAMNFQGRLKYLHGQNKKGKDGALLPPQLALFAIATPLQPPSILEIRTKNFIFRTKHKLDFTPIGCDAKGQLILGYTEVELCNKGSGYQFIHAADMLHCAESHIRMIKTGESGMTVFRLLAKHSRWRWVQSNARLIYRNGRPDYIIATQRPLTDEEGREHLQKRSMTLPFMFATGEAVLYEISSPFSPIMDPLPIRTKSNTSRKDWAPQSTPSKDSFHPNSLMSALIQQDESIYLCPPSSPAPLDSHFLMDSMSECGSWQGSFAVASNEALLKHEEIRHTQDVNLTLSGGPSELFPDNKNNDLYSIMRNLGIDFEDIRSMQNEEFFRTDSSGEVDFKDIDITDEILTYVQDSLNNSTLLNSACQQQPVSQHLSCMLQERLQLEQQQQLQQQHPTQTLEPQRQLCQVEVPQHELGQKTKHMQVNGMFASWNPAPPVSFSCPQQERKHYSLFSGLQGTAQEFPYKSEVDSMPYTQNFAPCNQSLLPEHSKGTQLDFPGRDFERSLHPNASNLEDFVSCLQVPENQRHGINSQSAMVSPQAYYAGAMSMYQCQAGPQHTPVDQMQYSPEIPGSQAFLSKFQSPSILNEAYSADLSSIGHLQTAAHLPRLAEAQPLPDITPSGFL
- Run description: CYP1A1 mRNA induction by qRT-PCR, rat H4IIE cells
One number for each entry, as −log10 of the molar value.

Compound | pEC50
Clc1cc2c(cc1Cl)Oc1cc(Cl)c(Cl)cc1O2 [TCDD, 2,3,7,8-tetrachlorodibenzo-p-dioxin, reference compound] | 9.95

Enquiry: Indicate the recorded pEC50 value for this compound: `COc1ccc2c(=O)c(-c3ccc(Cl)cc3)c(N)oc2c1`
Return: 4.38

----------
- Tested target: UniProtKB P35869
- Sequence (P35869 11-848): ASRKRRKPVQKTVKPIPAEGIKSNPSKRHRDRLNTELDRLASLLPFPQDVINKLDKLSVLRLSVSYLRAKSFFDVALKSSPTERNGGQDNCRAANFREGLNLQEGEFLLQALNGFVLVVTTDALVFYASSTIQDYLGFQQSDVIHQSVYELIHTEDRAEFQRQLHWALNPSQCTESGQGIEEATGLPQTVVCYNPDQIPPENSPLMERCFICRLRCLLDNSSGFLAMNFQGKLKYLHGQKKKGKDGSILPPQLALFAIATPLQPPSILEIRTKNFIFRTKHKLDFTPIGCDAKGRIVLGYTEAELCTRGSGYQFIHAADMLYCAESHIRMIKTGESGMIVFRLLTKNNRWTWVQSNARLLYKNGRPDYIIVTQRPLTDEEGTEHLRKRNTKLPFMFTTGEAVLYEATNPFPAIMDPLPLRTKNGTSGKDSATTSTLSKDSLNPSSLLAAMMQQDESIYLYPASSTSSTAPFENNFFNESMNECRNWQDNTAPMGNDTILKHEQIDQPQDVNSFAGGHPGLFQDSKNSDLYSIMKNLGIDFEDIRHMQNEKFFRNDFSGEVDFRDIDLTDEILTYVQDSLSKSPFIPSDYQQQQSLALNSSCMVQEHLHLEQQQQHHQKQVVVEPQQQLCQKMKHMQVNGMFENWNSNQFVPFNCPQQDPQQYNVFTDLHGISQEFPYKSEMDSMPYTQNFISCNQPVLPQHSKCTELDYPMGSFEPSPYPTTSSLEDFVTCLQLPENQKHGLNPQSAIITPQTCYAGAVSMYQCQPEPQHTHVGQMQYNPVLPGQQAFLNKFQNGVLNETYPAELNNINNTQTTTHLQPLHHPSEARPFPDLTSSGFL
- Run description: CYP1A1 mRNA induction by qRT-PCR, human MCF-7 cells
Readout kind: EC50 (nM)
Answers are plain numbers, in nM.

Enquiry: Retrieve EC50 on UniProtKB P35869; query Clc1cc2c(cc1Cl)Oc1cc(Cl)c(Cl)cc1O2 [TCDD, 2,3,7,8-tetrachlorodibenzo-p-dioxin, reference compound]
Return: 0.661

----------
- Tested target: AhR (Rattus norvegicus, UniProt P41738)
Readout kind: EC50 (µM)
Answers are plain numbers, in µM.

Enquiry: Respond only with EC50 recorded for `COc1ccc(-c2cc3cc(Cl)ccc3oc2=O)cc1`
Return: 7.7
